Data provenance: PubChem BioAssay (Tox21)

# Protocol notes: qHTS assay to test for compound auto fluorescence at 460 nm (blue) in HEK293 cells (AID 720678); further: on the % scale 0 is the no-effect control and ±100 the full control effect
# Experimental conditions: blue autofluorescence 405/460 nm; series mostly up to 91.3 µM
The source made the active and inactive calls. The call rests on the fitted dose curve; in most records, active means well fitted curve in the direction sought with a large enough effect in the repeat runs; inconclusive means weak or mixed curves; inactive means flat fitted curve, though single readings scatter.
Endpoint name: fluorescence, % of triamterene

Sample answers from the record:
>>> result("CC(=O)O[C@@H]1C(=O)O[C@@H]2[C@H]1OC(=O)[C@@H]2OC(C)=O")
"inactive"
>>> result("CC(=O)OC/C=C/c1ccccc1")
"inactive"
>>> result("Cn1c(N)nc2nc[nH]c2c1=O")
"inactive"
>>> result("CC(C)NCC(O)COc1ccc(CC(N)=O)cc1 (centres undefined)")
"inactive"

Give the measured fluorescence, % of triamterene of CC(C)CC=O . inactive

Same question for CCCCOCCOCCOCCOCCO please. inactive

###

# Protocol notes: qHTS assay for identifying genotoxic compounds that show differential cytotoxicity against isogenic chicken DT40 cell lines with known DNA damage response pathways - Rad54/Ku70 mutant cell line (AID 743015); further: nearly all actives have a fitted effect of over 60% in size
# Experimental conditions: DT40 Rad54/Ku70 mutant viability, CellTiter-Glo, 40 h; series mostly up to 66.8 µM
Records with an inconclusive call do not appear. The source made the active and inactive calls. The call rests on the fitted dose curve; in most records, active means well fitted cell-killing curve with a large enough effect in the repeat runs; inconclusive means weak or mixed curves; inactive means no such curve, though single readings can be large or run the other way.
// classify into Y = active, N = inactive

Some entries whose results are on file:
>>> class_name("CC(O)C1CCCCC1 (centres undefined)")
"N"
>>> class_name("CC(C)NCC(O)c1cc(O)cc(O)c1 (centres undefined)")
"N"
>>> class_name("OC(CCN1CCCCC1)(c1ccccc1)C1CCCCC1 (centres undefined)")
"N"
>>> class_name("O=[N+]([O-])c1cccc(Cl)c1Cl")
"N"
>>> class_name("Cc1ncsc1CCO")
"N"
>>> class_name("CCCCCCCCCC=O")
"N"
>>> class_name("CN1CCC(=C2c3ccccc3CCc3sccc32)CC1")
"Y"
>>> class_name("C=CC(=O)OCC(C)OCC(C)OCC(C)OC(=O)C=C (centres undefined)")
"Y"

Now look at this entry.
Per the records of this test, what outcome belongs to CC(=O)NCCCS(=O)(=O)O ? N

###

# Protocol notes: qHTS assay to identify small molecule antagonists of the estrogen receptor beta (ER-beta) signaling pathway - cell viability counter screen (AID 1259382);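 further: HEK293T cells carrying ER-beta-UAS-bla reporter stimulated with estradiol; on the % scale 0 is the no-effect control and ±100 the full control effect; nearly all actives have a fitted effect of over 55% in size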
# Experimental conditions: ER-beta-UAS-bla HEK293T viability, CellTiter-Glo luminescence, 16 h; series mostly up to 92.4 µM
Results filed as inconclusive are left out. The source made the active and inactive calls. The call rests on the fitted dose curve; in most records, active means well fitted cell-killing curve with a large enough effect in the repeat runs; inconclusive means weak or mixed curves; inactive means flat fitted curve, though single readings scatter.
Endpoint name: activity change, negative = cytotoxicity

>>> result("Cc1ccc(C)o1")
"inactive"
>>> result("CC(C(=O)O)c1ccc(C(=O)c2ccccc2)s1 (configuration not stated)")
"inactive"
>>> result("CCCCCCCCN(C)C")
"inactive"
>>> result("CCCCOC(=O)c1ccccc1C(=O)OCC(CC)CCCC (configuration not stated)")
"inactive"
>>> result("CCCCOCCOCCOCCOCCO")
"inactive"

What value of activity change, negative = cytotoxicity has been recorded for this entry: CC(C)c1ccccc1C(C)C inactive

Ok, now CCCC[C@H]1CN(CC2CCOCC2)C(=O)OC12CCN(C1(C)CCN(C(=O)c3c(C)ncnc3C)CC1)CC2 inactive

Also need Oc1ccc(C(O)CNCCCCCCNCC(O)c2ccc(O)c(O)c2)cc1O (configuration not stated) , thanks. inactive

What about this molecule? SC1CCCC1 inactive

Moving on to the next molecule: Cc1ccccc1N=Nc1ccc(N=Nc2c(O)ccc3ccccc23)c(C)c1 inactive

Proceed to FC(F)(F)C(F)(F)C(F)(F)C(F)(F)C(F)(F)C(F)(F)CCI inactive

Same for CCN(CC)CCOC(=O)C1(c2ccccc2)CCCC1 inactive

###

# Experimental target: Thyrotropin receptor (Homo sapiens) (UniProt P16473)
# Sequence (P16473 whole entry, looked up): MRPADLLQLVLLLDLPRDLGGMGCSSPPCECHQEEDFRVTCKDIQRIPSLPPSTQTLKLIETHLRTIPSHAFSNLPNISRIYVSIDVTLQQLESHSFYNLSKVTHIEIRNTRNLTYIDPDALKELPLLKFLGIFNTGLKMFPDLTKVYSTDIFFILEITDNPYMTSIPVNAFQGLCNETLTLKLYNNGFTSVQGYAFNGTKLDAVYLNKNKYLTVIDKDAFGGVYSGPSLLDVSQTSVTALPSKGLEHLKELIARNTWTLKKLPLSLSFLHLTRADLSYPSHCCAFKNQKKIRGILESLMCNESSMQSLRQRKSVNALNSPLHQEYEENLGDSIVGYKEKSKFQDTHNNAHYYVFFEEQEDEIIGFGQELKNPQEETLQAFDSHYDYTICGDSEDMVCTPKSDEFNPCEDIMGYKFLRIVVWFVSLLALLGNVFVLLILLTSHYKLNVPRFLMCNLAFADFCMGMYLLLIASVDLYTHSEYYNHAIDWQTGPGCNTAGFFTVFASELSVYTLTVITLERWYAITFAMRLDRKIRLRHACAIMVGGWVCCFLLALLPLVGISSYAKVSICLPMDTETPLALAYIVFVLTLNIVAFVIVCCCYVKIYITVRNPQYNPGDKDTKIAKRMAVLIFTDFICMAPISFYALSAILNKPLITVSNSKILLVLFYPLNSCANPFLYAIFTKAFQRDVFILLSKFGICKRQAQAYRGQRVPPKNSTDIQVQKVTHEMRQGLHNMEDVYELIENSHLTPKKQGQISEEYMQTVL
# Protocol notes: qHTS assay to identify small molecule agonists of the thyroid stimulating hormone receptor (TSHR) signaling pathway (AID 1224843); further: nearly all actives have a fitted effect of over 45% in size
# Experimental conditions: TSHR-HEK293 cells, cAMP HTRF, agonist mode, 30 min; series mostly up to 92.4 µM
Inconclusive results are not listed. Active and inactive are the calls of the source. The call rests on the fitted dose curve.
Allowed answers: active, inactive

Known results for compounds:
>>> class_name("CC1CCc2cc(F)cc3c(=O)c(C(=O)O)cn1c23 (stereo unspecified)")
"inactive"
>>> class_name("CC(=O)c1c(C)c([N+](=O)[O-])c(C(C)(C)C)c([N+](=O)[O-])c1C")
"active"
>>> class_name("Oc1ccc(O)c2c(O)cccc12")
"inactive"
>>> class_name("CCCCOCCOCCOCCOCCO")
"inactive"
>>> class_name("NC(N)=NN=C(/C=C/c1ccc([N+](=O)[O-])o1)/C=C/c1ccc([N+](=O)[O-])o1")
"inactive"

Would you kindly look at the next entry?
Recorded test call requested for OCC1CC2CC1C1CCC(CO)C21 (stereo unspecified) inactive

###

# Protocol notes: qHTS assay to identify small molecule HDAC inhibitors (AID 1259364);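 further: wild-type HCT-116 cells with endogenous class I/II HDAC activity; top concentration of the series differs between compounds; on the % scale 0 is the no-effect control and ±100 the full control effect; nearly all actives have a fitted effect of over 45% in size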
# Experimental conditions: HCT-116 HDAC-Glo I/II luminescence, 2 h; series mostly up to 92.4 µM
Inconclusive results are not listed. The source made the active and inactive calls. The call rests on the fitted dose curve; in most records, active means well fitted inhibition curve with a large enough effect in the repeat runs; inconclusive means weak or mixed curves; inactive means flat fitted curve, though single readings scatter.
Use one of these outcomes when replying: YES for active, NO for inactive

I would be grateful if you could indicate the recorded call for CN(C)CCCOc1nn(Cc2ccccc2)c2ccccc12 . NO

What about this compound? CCCCCCCC/C=C\CCCCCCCC(N)=O NO

Moving on to the next compound: N#CCc1cccc(C(F)(F)F)c1 NO

Do the same for O=C(O)Cn1c(C(=O)Nc2nc(-c3ccccc3Cl)cs2)cc2ccccc21 please NO

Follow-up item: CNCC[C@@H](Oc1ccccc1C)c1ccccc1 NO

Consider next the compound CCCCCCCCCCCCCCCBr in the same way. NO

Here is the next compound: COC(Cc1ccccc1)OC NO

Now the same for Cl/C(=C\n1cncn1)c1ccc(Cl)cc1Cl NO

Next compound: CCCCCc1ccc(N)cc1 NO

Next entry: CC(=O)N(O)CCCCCNC(=O)CCC(=O)N(O)CCCCCNC(=O)CCC(=O)N(O)CCCCCN NO

###

# Protocol notes: qHTS assay to identify small molecule antagonists of the estrogen receptor alpha (ER-alpha) signaling pathway using the BG1 cell line in the presence of 0.1 nM 17-beta-estradiol - cell viability counter screen (AID 1259241); further: on the % scale 0 is the no-effect control and ±100 the full control effect; nearly all actives have a fitted effect of over 40% in size
# Experimental conditions: VM7Luc4E2 (BG1) viability, CellTiter-Fluor protease, 22 h, 0.1 nM estradiol agonist added; series mostly up to 92.4 µM
Inconclusive results are not listed. The source made the active and inactive calls. Calls follow the shape of the dose curve; as a rule, active = well fitted cell-killing curve with a large enough effect in the repeat runs; inconclusive = weak or mixed curves, or effect the other way; inactive = flat fitted curve, though single readings scatter.
Endpoint name: activity change, negative = cytotoxicity

Here's what some known entries look like.
>>> result("CCN(CC)C(C)=O")
"inactive"
>>> result("O=C(O)Cn1c(C(=O)Nc2nc(-c3ccccc3Cl)cs2)cc2ccccc21")
"inactive"
>>> result("NCc1ccccc1")
"inactive"
>>> result("CCCCCCCCCCCCCCCCCBr")
"5.52% [at 19 µM] (inactive)"
>>> result("O=C1c2cccc(O)c2C(=O)c2c(O)cc(CO)cc21")
"inactive"

Recorded activity change, negative = cytotoxicity for CC/C(=C\C(=N/O)C(N)=O)C(C)[N+](=O)[O-] (configuration not stated) , please? inactive

Now the same for CCCCC(CC)(CO)CO inactive

###

# Protocol notes: qHTS assay to identify small molecule agonists of the estrogen receptor beta (ER-beta) signaling pathway - cell viability counter screen (AID 1259380); further: on the % scale 0 is the no-effect control and ±100 the full control effect; nearly all actives have a fitted effect of over 30% in size
# Experimental conditions: ER-beta-bla HEK293T viability, CellTiter-Glo luminescence, 16 h; series mostly up to 92.4 µM
Results filed as inconclusive are left out. Active and inactive are the calls of the source. Calls come from the whole dose curve; as a rule, active = well fitted cell-killing curve with a large enough effect in the repeat runs; inconclusive = weak or mixed curves, or effect the other way; inactive = flat fitted curve, though single readings scatter.
Endpoint name: outcome

Solved entries (count: 6):
>>> result("CC(=O)N(CC(=O)N(C)C)c1ccccc1")
"inactive"
>>> result("NCCCN(CCO)CCO")
"inactive"
>>> result("CC(C)CC=O")
"inactive"
>>> result("O=[N+]([O-])c1cccc(Cl)c1Cl")
"inactive"
>>> result("O=C1CCCCCO1")
"inactive"
>>> result("O=C(O)C1CCC(C(=O)O)CC1 (stereo not drawn)")
"inactive"

So what does the record say about outcome for O=C(c1ccc(O)cc1)c1ccc(O)cc1 ? inactive

Same read-out for C=CC(=O)OCCOC(=O)CCC(=O)O ? inactive

###

# Experimental target: Nuclear receptor subfamily 1 group I member 3 (Homo sapiens) (UniProt Q14994)
# Sequence (Q14994 whole entry, looked up): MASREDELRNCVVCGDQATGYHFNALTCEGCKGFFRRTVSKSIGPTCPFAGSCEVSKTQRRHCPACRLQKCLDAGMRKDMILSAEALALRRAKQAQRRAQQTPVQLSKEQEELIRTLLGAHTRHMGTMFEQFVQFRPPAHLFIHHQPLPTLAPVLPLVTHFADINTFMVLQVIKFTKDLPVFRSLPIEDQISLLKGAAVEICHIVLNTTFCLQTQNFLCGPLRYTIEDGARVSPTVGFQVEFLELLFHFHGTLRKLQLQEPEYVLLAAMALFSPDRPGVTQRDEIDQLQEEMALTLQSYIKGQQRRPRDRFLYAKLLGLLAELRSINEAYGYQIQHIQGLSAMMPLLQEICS
# Protocol notes: qHTS assay to identify small molecule antagonists of the constitutive androstane receptor (CAR) signaling pathway (AID 1224838);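 further: HepG2 cells stably expressing hCAR with CYP2B6 luciferase reporter stimulated by CITCO; on the % scale 0 is the no-effect control and ±100 the full control effect; nearly all actives have a fitted effect of over 40% in size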
# Experimental conditions: HepG2-CYP2B6-hCAR luciferase, CITCO-stimulated, 24 h; series mostly up to 92.4 µM
Inconclusive results are not listed. Active and inactive are the calls of the source. Calls follow the shape of the dose curve; as a rule, active = well fitted inhibition curve with a large enough effect in the repeat runs; inconclusive = weak or mixed curves, or effect the other way; inactive = no such curve, though single readings can be large or run the other way.
Endpoint name: outcome

Please review the entries below; each comes with its answer.
>>> result("CCCC(=O)OCC")
"inactive"
>>> result("COc1ccccc1OC(=O)Oc1ccccc1OC")
"inactive"
>>> result("CCCCCCCCCCCCCCCC(=O)OC/C=C(C)/C=C/C=C(C)/C=C/C1=C(C)CCCC1(C)C")
"inactive"
>>> result("COC(Cc1ccccc1)OC")
"inactive"
>>> result("CC(Cc1cccc(C(F)(F)F)c1)NCCOC(=O)c1ccccc1 (stereo not drawn)")
"inactive"
>>> result("COc1ccc(OC)c(OC)c1")
"inactive"

Here is another compound to look at.
Entry CN1CCC(OC(c2ccccc2)c2ccccc2)CC1 , system Nuclear receptor subfamily 1 group I member 3 (Homo sapiens) (UniProt Q14994): what outcome was measured? inactive
